These measurements were taken from patent US20050054041.

target: microtubules
Parameter Measured: MT depolymerization

Task: I would be grateful if you could share the reported MT depolymerization for KinI-3 construct E213/S566 (protein) MEKQNPWTEMEKIRVCVRKRPLGMREVRRGEINIITVEDKETLLVHEKKEAVDLTQYILQHVFYFDEVFGEACTNQDVYMKTTHPLIQHIFNGGNATCFAYGQTGAGKTYTMIGTHENPGLYALAAKDIFRQLEVSQPRKHLFVWISFYEIYCGQLYDLLNRRKRLFAREDSKHMVQIVGLQELQVDSVELLLEVILKGSKERSTGATGVNADSSRSHAVIQIQIKDSAKRTFGRISFIDLAGSERAADARDSDRQTKMEGAEINQSLLALKECIRALDQEHTHTPFRQSKLTQVLKDSFIGNAKTCMIANISPSHVATEHTLNTLRYADRVKELKKGIKCCTSVTSRNRTSGNSLEHHHHHH .
Output: weak

Task: Which MT depolymerization value is on record for KinI-3 construct V195S566 (protein) MVSGYNYGIPHSCIRQNTSEKQNPWTEMEKIRVCVRKRPLGMREVRRGEINIITVEDKETLLVHEKKEAVDLTQYILQHVFYFDEVFGEACTNQDVYMKTTHPLIQHIFNGGNATCFAYGQTGAGKTYTMIGTHENPGLYALAAKDIFRQLEVSQPRKHLFVWISFYEIYCGQLYDLLNRRKRLFAREDSKHMVQIVGLQELQVDSVELLLEVILKGSKERSTGATGVNADSSRSHAVIQIQIKDSAKRTFGRISFIDLAGSERAADARDSDRQTKMEGAEINQSLLALKECIRALDQEHTHTPFRQSKLTQVLKDSFIGNAKTCMIANISPSHVATEHTLNTLRYADRVKELKKGIKCCTSVTSRNRTSGNSLEHHHHHH ?
Output: yes

Task: Which MT depolymerization is listed for KinI-3 construct E166L546 (protein) EISTSLFSPNYLSAILGDCDIPIIQRISHVSGYNYGIPHSCIRQNTSEKQNPWTEMEKIRVCVRKRPLGMREVRRGEINIITVEDKETLLVHEKKEAVDLTQYILQHVFYFDEVFGEACTNQDVYMKTTHPLIQHIFNGGNATCFAYGQTGAGKTYTMIGTHENPGLYALAAKDIFRQLEVSQPRKHLFVWISFYEIYCGQLYDLLNRRKRLFAREDSKHMVQIVGLQELQVDSVELLLEVILKGSKERSTGATGVNADSSRSHAVIQIQIKDSAKRTFGRISFIDLAGSERAADARDSDRQTKMEGAEINQSLLALKECIRALDQEHTHTPFRQSKLTQVLKDSFIGNAKTCMIANISPSHVATEHTLNTLRYADRVKEL ?
Output: no
